- target.or.system: Human Recombinant Glucocorticoid Receptor (Homo sapiens)
- Construct: This GR was a full-length steroid hormone receptor likely to be associated with heat-shock and other endogenous proteins; host or cells: baculovirus-infected insect cells
- experimental.details: Glucocorticoid receptor binding displacement assay with 3H-dexamethasone
- stated.conditions: displacement of 2.5 nM 3H-dexamethasone; Ki from IC50 by Cheng-Prusoff; read-out: GR Binding Ki
pKi: −log10 of the molar value.
observed.property: pKi

- compound: "COC[C@]12Cc3cnn(-c4ccc(F)cc4)c3C=C1CCN(S(=O)(=O)c1ccc(N3CCN(C)CC3)nc1)C2"
  pKi: "< 9.00"
- compound: "O=S(=O)(c1ccc(N2CC[C@@H](F)C2)nc1)N1CCC2=Cc3c(cnn3-c3ccc(F)cc3)C[C@]2(CN2CC[C@H](O)C2)C1"
  pKi: "< 9.00"
- compound: "O=S(=O)(c1ccc(N2CC[C@@H](F)C2)nc1)N1CCC2=Cc3c(cnn3-c3ccc(F)cc3)C[C@]2(COCC2CC2)C1"
  pKi: "9.00 to 9.30"
- compound: "COC[C@]12Cc3cnn(-c4ccc(F)cc4)c3C=C1CCN(S(=O)(=O)c1cncc(N3CC(O)C3)c1)C2"
  pKi: "9.00 to 9.30"
- compound: "COC[C@]12Cc3cnn(-c4ccc(F)cc4)c3C=C1CCN(S(=O)(=O)c1ccc(N3CCNCC3)nc1)C2"
  pKi: "< 9.00"
- compound: "O=C(OCC1CC(O)C1)[C@]12Cc3cnn(-c4ccc(F)cc4)c3C=C1CCN(S(=O)(=O)c1ccc(N3CCOCC3)nc1)C2 (stereo partly shown)"
  pKi: "< 9.00"

Ask: Entry under review: CCOC[C@]12Cc3cnn(-c4ccc(F)cc4)c3C=C1CCN(S(=O)(=O)c1ccc(N(C)C)nc1)C2 . Reported pKi?
Reply: > 9.30

* * *

- target.or.system: glucocorticoid receptors (GR) in SW1353/MMTV-5 cells (Homo sapiens)
- Construct: contains endogenous glucocorticoid receptors; endogenous in cells
- experimental.details: GR functional assay using SW1353/MMTV-5 cells (MMTV-luciferase reporter)
- Excerpt: SW1353/MMTV-5 is an adherent human chondrosarcoma cell line that contains endogenous glucocorticoid receptors. It was transfected with a plasmid (pMAMneo-Luc) encoding firefly luciferase located behind a glucocorticoid-responsive element (GRE) derived from a viral promoter (long terminal repeat of mouse mammary tumor virus). A stable cell line SW1353/MMTV-5 was selected with geneticin, which was required to maintain this plasmid. […]
pKi: −log10 of the molar value.
observed.property: pKi

# annotated cases, reported pKi shown
- molecule: "CCOC[C@]12Cc3cnn(-c4ccc(F)cc4)c3C=C1CCN(S(=O)(=O)c1ccc(N3CCCC3)nc1)C2 [Example 4]"
  result.value: "7.30 to 8.00"
- molecule: "CN(C)CCOC(=O)[C@]12Cc3cnn(-c4ccc(F)cc4)c3C=C1CCN(S(=O)(=O)c1ccc(N3CCOCC3)nc1)C2 [Example 56]"
  result.value: "< 7.30"

Ask: Reported pKi for COCCOC[C@]12Cc3cnn(-c4ccc(F)cc4)c3C=C1CCN(S(=O)(=O)c1ccc(N3CCOCC3)nc1)C2 [Example 64] : what is it?
Reply: > 8.00

Ask: State the recorded pKi for this entry: CCOC[C@]12Cc3cnn(-c4ccc(F)cc4)c3C=C1CCN(S(=O)(=O)c1cnc3c(c1)OCCN3C)C2 [Example 3]
Reply: 7.30 to 8.00

Ask: Param item = O=C(OCC1CC(O)C1)[C@]12Cc3cnn(-c4ccc(F)cc4)c3C=C1CCN(S(=O)(=O)c1ccc(N3CCOCC3)nc1)C2 (some centres unmarked) [Example 53] ; retrieve measured pKi.
Reply: 7.30 to 8.00

Ask: What value of pKi has been reported for the following molecule? COCCOC[C@]12Cc3cnn(-c4ccc(F)cc4)c3C=C1CCN(S(=O)(=O)c1ccc(N3CC[C@@H](F)C3)nc1)C2 [Example 33]
Reply: > 8.00

Ask: Which pKi is listed for COC[C@]12Cc3cnn(-c4ccc(F)cc4)c3C=C1CCN(S(=O)(=O)c1cncc(N3CCC3)c1)C2 [Example 13] ?
Reply: 7.30 to 8.00

Ask: Returns the measured pKi for the input molecule. Input: COC[C@]12Cc3cnn(-c4ccc(F)cc4)c3C=C1CCN(S(=O)(=O)c1cncc(N3CCOCC3)c1)C2 [Example 12]
Reply: < 7.30

Ask: Field request: pKi | item: O=C(OCCO)[C@]12Cc3cnn(-c4ccc(F)cc4)c3C=C1CCN(S(=O)(=O)c1ccc(N3CCOCC3)nc1)C2 [Example 55]
Reply: < 7.30

Ask: // pKi lookup, key: O=S(=O)(c1ccc(N2CCOCC2)nc1)N1CCC2=Cc3c(cnn3-c3ccc(F)cc3)C[C@]2(COCC2CC2)C1 [Example 32]
Reply: > 8.00

Ask: Item Cc1cc(COC[C@]23Cc4cnn(-c5ccc(F)cc5)c4C=C2CCN(S(=O)(=O)c2ccc(N4CC[C@@H](F)C4)nc2)C3)no1 [Example 35] has what recorded pKi?
Reply: 7.30 to 8.00

Ask: // returns reported pKi for input COC[C@]12Cc3cnn(-c4ccc(F)cc4)c3C=C1CCN(S(=O)(=O)c1ccc(N3CCN(C)CC3)nc1)C2 [Example 19]
Reply: < 7.30

Ask: # pKi lookup, item COC[C@]12Cc3cnn(-c4ccc(F)cc4)c3C=C1CCN(S(=O)(=O)c1cncc(N3CC(O)C3)c1)C2 [Example 36]
Reply: < 7.30

Ask: Reported pKi, molecule O=S(=O)(c1ccc(N2CCOCC2)nc1)N1CCC2=Cc3c(cnn3-c3ccc(F)cc3)C[C@]2(CN2CC[C@@H](O)C2)C1 [Example 63] : ____
Reply: 7.30 to 8.00

* * *

- target.or.system: glucocorticoid receptors (GR) in SW1353/MMTV-5 cells (Homo sapiens, UniProt P04150)
- Construct: contains endogenous glucocorticoid receptors; endogenous in cells
- experimental.details: GR functional assay using SW1353/MMTV-5 cells (MMTV-luciferase reporter)
pKi: −log10 of the molar value.
molecules and their reported pKi

- structure.smiles.string: "O=C(OCC1CCC1)[C@]12Cc3cnn(-c4ccc(F)cc4)c3C=C1CCN(S(=O)(=O)c1ccc(N3CCOCC3)nc1)C2"
  pKi: "> 8.00"
- structure.smiles.string: "CNc1ccc(S(=O)(=O)N2CCC3=Cc4c(cnn4-c4ccc(F)cc4)C[C@]3(COC)C2)cn1"
  pKi: "< 7.30"
- structure.smiles.string: "O=S(=O)(c1ccc(N2CC[C@@H](F)C2)nc1)N1CCC2=Cc3c(cnn3-c3ccc(F)cc3)C[C@]2(COCC2CC2)C1"
  pKi: "> 8.00"

Ask: Need pKi, item O=S(=O)(c1ccc(N2CC[C@@H](F)C2)nc1)N1CCC2=Cc3c(cnn3-c3ccc(F)cc3)C[C@]2(COCCO)C1
Reply: < 7.30

Ask: Given the entry COC[C@]12Cc3cnn(-c4ccc(F)cc4)c3C=C1CCN(S(=O)(=O)c1ccc(C(F)(F)F)nc1)C2 , report its measured pKi.
Reply: 7.30 to 8.00

Ask: Tell me the measured pKi of O=S(=O)(c1ccc(N2CCC2)nc1)N1CCC2=Cc3c(cnn3-c3ccc(F)cc3)C[C@]2(COC(F)F)C1 , please.
Reply: 7.30 to 8.00

Ask: Find the recorded pKi belonging to O=C(OC1CCC1)[C@]12Cc3cnn(-c4ccc(F)cc4)c3C=C1CCN(S(=O)(=O)c1ccc(N3CCOCC3)nc1)C2 and report it.
Reply: > 8.00

* * *

- target.or.system: Human Recombinant Glucocorticoid Receptor (Homo sapiens, UniProt P04150)
- Construct: This GR was a full-length steroid hormone receptor likely to be associated with heat-shock and other endogenous proteins
- Sequence (P04150 whole entry): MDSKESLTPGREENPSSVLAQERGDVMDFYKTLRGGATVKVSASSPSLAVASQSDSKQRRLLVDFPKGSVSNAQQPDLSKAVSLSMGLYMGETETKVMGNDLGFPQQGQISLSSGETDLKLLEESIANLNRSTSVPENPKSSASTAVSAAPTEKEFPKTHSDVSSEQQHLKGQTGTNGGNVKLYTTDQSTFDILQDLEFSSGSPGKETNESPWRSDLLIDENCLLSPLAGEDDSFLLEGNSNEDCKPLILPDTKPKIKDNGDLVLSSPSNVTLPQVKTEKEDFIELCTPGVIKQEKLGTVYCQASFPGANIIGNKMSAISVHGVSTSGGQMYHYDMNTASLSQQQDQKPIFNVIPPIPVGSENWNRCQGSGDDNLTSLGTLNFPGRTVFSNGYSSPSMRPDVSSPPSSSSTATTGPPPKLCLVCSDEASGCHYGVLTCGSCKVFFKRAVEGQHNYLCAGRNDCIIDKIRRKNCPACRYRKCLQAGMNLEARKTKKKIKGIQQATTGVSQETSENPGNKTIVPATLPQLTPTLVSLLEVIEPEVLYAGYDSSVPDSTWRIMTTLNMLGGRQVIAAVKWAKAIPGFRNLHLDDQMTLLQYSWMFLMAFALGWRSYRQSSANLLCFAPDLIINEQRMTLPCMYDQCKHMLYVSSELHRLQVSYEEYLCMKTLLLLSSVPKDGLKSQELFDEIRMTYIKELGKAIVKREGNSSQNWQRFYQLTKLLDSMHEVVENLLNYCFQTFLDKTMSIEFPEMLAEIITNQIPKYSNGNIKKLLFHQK
- experimental.details: Glucocorticoid receptor binding displacement assay with 3H-dexamethasone
- stated.conditions: displacement of 2.5 nM 3H-dexamethasone; Ki from IC50 by Cheng-Prusoff; read-out: GR Binding Ki
Below, each of the compounds is paired with its reported Ki value.

See these solved cases before continuing.
- compound: "COC[C@]12Cc3cnn(-c4ccc(F)cc4)c3C=C1CCN(S(=O)(=O)c1ccc(N3CC[C@@H](F)C3)nc1)C2"
  target.or.system: "Human Recombinant Glucocorticoid Receptor (Homo sapiens, UniProt P04150)"
  result.value: "> 1 nM"
- compound: "COC[C@]12Cc3cnn(-c4ccc(F)cc4)c3C=C1CCN(S(=O)(=O)c1ccc(N3C[C@@H]4C[C@H]3CO4)nc1)C2"
  target.or.system: "Human Recombinant Glucocorticoid Receptor (Homo sapiens, UniProt P04150)"
  result.value: "> 1 nM"
- compound: "CNc1ccc(S(=O)(=O)N2CCC3=Cc4c(cnn4-c4ccc(F)cc4)C[C@]3(COC)C2)cn1"
  target.or.system: "Human Recombinant Glucocorticoid Receptor (Homo sapiens, UniProt P04150)"
  result.value: "> 1 nM"
- compound: "O=S(=O)(c1ccc(N2CCCC2)nc1)N1CCC2=Cc3c(cnn3-c3ccc(F)cc3)C[C@]2(COCC2CC2)C1"
  target.or.system: "Human Recombinant Glucocorticoid Receptor (Homo sapiens, UniProt P04150)"
  result.value: "0.5 to 1 nM"
- compound: "O=S(=O)(c1ccc(N2CC(O)C2)nc1)N1CCC2=Cc3c(cnn3-c3ccc(F)cc3)C[C@]2(COCC2CC2)C1"
  target.or.system: "Human Recombinant Glucocorticoid Receptor (Homo sapiens, UniProt P04150)"
  result.value: "0.5 to 1 nM"

Ask: Form: Entry = CCOC[C@]12Cc3cnn(-c4ccc(F)cc4)c3C=C1CCN(S(=O)(=O)c1ccc(NC)nc1)C2 | System = Human Recombinant Glucocorticoid Receptor (Homo sapiens, UniProt P04150) | Ki = ____
Reply: < 0.5 nM

Ask: Param readout= Ki; system= Human Recombinant Glucocorticoid Receptor (Homo sapiens, UniProt P04150); entry= O=C(OCC1CC1)[C@]12Cc3cnn(-c4ccc(F)cc4)c3C=C1CCN(S(=O)(=O)c1ccc(N3CCOCC3)nc1)C2 ; returns value.
Reply: 0.5 to 1 nM

Ask: Record COC[C@]12Cc3cnn(-c4ccc(F)cc4)c3C=C1CCN(S(=O)(=O)c1ccc(N3CCOCC3)nc1)C2 : what is its Ki with Human Recombinant Glucocorticoid Receptor (Homo sapiens, UniProt P04150)?
Reply: 0.5 to 1 nM

Ask: GET /values?readout=Ki&system=Human Recombinant Glucocorticoid Receptor (Homo sapiens, UniProt P04150)&item= COC(=O)[C@]12Cc3cnn(-c4ccc(F)cc4)c3C=C1CCN(S(=O)(=O)c1ccc(N3CCOCC3)nc1)C2
Reply: > 1 nM

Ask: // lookup Ki | system=Human Recombinant Glucocorticoid Receptor (Homo sapiens, UniProt P04150) | key= COCCOC[C@]12Cc3cnn(-c4ccc(F)cc4)c3C=C1CCN(S(=O)(=O)c1ccc(N3CC[C@@H](F)C3)nc1)C2
Reply: 0.5 to 1 nM
